Test: chemical genetic growth profiling, strain panel (AID 1159580);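 also: tested at 20 µM; growth read once vehicle control cultures reached saturation at 30 °C; 1 = growth at the plate median or of vehicle wells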
Settings: S. cerevisiae deletion strains, growth OD, locus YOR119C, strain RIO1
The whole screen tested about 5,500 compounds, of which about 2,000 (36%) were called active. Roughly 18% stayed inconclusive and do not appear here. Rule as the data show it: active = normalized growth mostly below about 0.91 (no sharp cut-off); inconclusive = no clear call, values can overlap the other calls; inactive = mostly above about 0.92. The list shows a part of the results.
Can you answer with just one of these options? class 1 for active, class 0 for inactive

{"compound": "CSc1c(C#N)c(-c2ccc(Cl)cc2)nn1C(=O)c1ccccc1Cl", "assigned.class": "class 0"}

Hi, do you know how COc1ccccc1C(C[N+](=O)[O-])c1c(N)n(C)c(=O)n(C)c1=O (stereo not given) came out in this test?
class 1

Now this one: CC12CC[C@@H](O)CC1=CC[C@@H]1C2CCC2(C)C(=O)CC[C@@H]12 (stereo not given in full)
class 0

Can you handle CC(C)(O)C#Cc1ccc(/C=N\Nc2ccccc2)cc1 next?
class 0

What do we get for CC(C)(O)C#Cc1ccc(/C=N\Nc2c(Cl)cc(Cl)cc2Cl)cc1 ?
class 0

* * *

Assay: chemical genetic growth profiling, strain panel (AID 1159580)
Conditions: S. cerevisiae deletion strains, growth OD, locus YBR171W, strain sec66
Out of some 5,500 compounds screened, about 2,000 (36%) were called active. Inconclusive results (about 18%) are left out. No stated cut-off is given here; in the data, active means normalized growth mostly below about 0.91 (no sharp cut-off); inconclusive means no clear call, values can overlap the other calls; inactive means mostly above about 0.92. Some of the results follow.
Classes to choose from: True (active), False (inactive)

Use the examples below as a reference point.
{"compound": "CC1(C)CC2C1CCC1(C)OC2(C)CCC1O (centres undefined)", "assigned.class": "False"}
{"compound": "CC1=C(/C=C/C(C)=C/C=C/C(C)=C/C(=O)O)C(C)(C)CCC1", "assigned.class": "False"}
{"compound": "COc1cc(/C=C/C(=O)O)ccc1O", "assigned.class": "False"}
{"compound": "CC1(C)O[C@@H]2CC3C4CCC5=CC(=O)C=C[C@]5(C)C4[C@@H](O)C[C@]3(C)[C@]2(C(=O)CO)O1 (some centres undefined)", "assigned.class": "False"}
{"compound": "c1ccc(-c2ccc(C(c3ccccc3)n3ccnc3)cc2)cc1 (centres undefined)", "assigned.class": "True"}

// param item: COc1ccc(/C=C/C(=O)O)cc1OC ; yields the recorded call
False

* * *

Quick reference: normalized growth of the listed items.
Assay: chemical genetic growth profiling, strain panel (AID 1159580)
Conditions: S. cerevisiae deletion strains, growth OD, locus YNL250W, strain rad50, stronger effect = lower value
About 2,000 (36%) of roughly 5,500 compounds were called active. Inconclusive results (about 18%) are left out. This is one part of the list.
Format: numeric value only, no unit, no commentary.

Some solved entries appear below for comparison.
{"molecule": "O=C(/C=C/c1ccc(O)c(O)c1)O[C@@H]1C[C@](O)(C(=O)O)C[C@@H](O)[C@H]1O", "value.observed": 1.03}
{"molecule": "C#C[C@]1(O)CCC2C3CCc4cc(O)ccc4C3CC[C@@]21C (stereo partly drawn)", "value.observed": 0.989}
{"molecule": "CC1CC2C(C(O)CC3(C)C2CCC3(O)C(=O)COC(=O)CCC(=O)O)C2(C)C=CC(=O)C=C12 (stereo not drawn)", "value.observed": 0.966}

Please turn your attention to the following entry.
// normalized growth lookup, key: COC(=O)[C@H]1[C@H]2C[C@@H]3c4[nH]c5cc(OC)ccc5c4CCN3C[C@H]2C[C@@H](OC(=O)c2cc(OC)c(OC)c(OC)c2)[C@@H]1OC
1.01

* * *

Overview of recorded normalized growth for various compounds
Test: chemical genetic growth profiling, strain panel (AID 1159580)
Settings: S. cerevisiae deletion strains, growth OD, locus YOR083W, strain WHI5 (second series), stronger effect = lower value
About 2,000 (36%) of roughly 5,500 compounds were called active. Inconclusive results (about 18%) are left out. Some of the results follow.
// keep it numeric: no unit symbol after the value

{"compound": "CC(Cc1ccc(OCC(=O)O)cc1)NCC(O)c1cccc(Cl)c1 (configuration not stated)", "normalized growth": 0.977}
{"compound": "CC12C(=O)OC(=O)C1(C)C1CCC2O1 (configuration not stated)", "normalized growth": 0.85}
{"compound": "CCCN1CC[C@@H]2c3cc(O)ccc3CC[C@@H]21", "normalized growth": 1.01}
{"compound": "CCCN1CCc2cccc3c2[C@H]1Cc1ccc(O)c(O)c1-3", "normalized growth": 0.631}
{"compound": "CCOC(=O)C1=CC2(CC)CCCN3CCc4c(n1c1ccccc41)C32 (configuration not stated)", "normalized growth": 1.01}

Requested field: normalized growth. Item: CNC(CC(=O)O)C(=O)O (configuration not stated)
1.05

Would you mind doing COc1cccc(-c2cc(=O)c3ccccc3o2)c1N as well?
0.807

And CCCN1CCc2cc(O)cc3c2[C@H]1Cc1ccc(O)c(O)c1-3 ?
0.926

And NCCCCN=C(N)N ?
1.01

Entry CCCN1CCOC2c3cc(O)ccc3OCC21 (configuration not stated) please
0.983

How about this compound: CN(C(=O)Cc1ccc(Cl)c(Cl)c1)C(CN1CCCC1)c1cccc(OCC(=O)O)c1 (configuration not stated)
0.999

What about this compound? O=c1cc(N2CCOCC2)oc2c(-c3ccccc3)cccc12
0.986

* * *

Overview of recorded normalized growth for various compounds
Experiment: chemical genetic growth profiling, strain panel (AID 1159580);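 also: tested at 20 µM; growth read once vehicle control cultures reached saturation at 30 °C; 1 = growth at the plate median or of vehicle wells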
Conditions: S. cerevisiae deletion strains, growth OD, locus YPL240C, strain hsp82, stronger effect = lower value
Hit rate of the full screen: of about 5,500 compounds, about 2,000 (36%) were called active. Inconclusive results (about 18%) are left out. Some of the results follow.
Quick one: just the number, no unit, thanks!

{"compound": "COc1ccc(/C=C/c2cc(O)cc(O)c2)cc1", "normalized growth": 1.01}
{"compound": "O=C(NC(=O)c1c(F)cccc1F)Nc1cc(Cl)c(OC(F)(F)C(F)C(F)(F)F)cc1Cl (stereo unspecified)", "normalized growth": 0.984}
{"compound": "COc1ccc(-c2cc(C(F)F)nn2-c2ccc(S(N)(=O)=O)cc2)cc1F", "normalized growth": 0.99}
{"compound": "NC(=O)c1ccc(N)nc1", "normalized growth": 0.993}
{"compound": "C=CCN1CC[C@]23c4c5ccc(O)c4OC2C(=O)CC[C@@]3(O)[C@H]1C5 (stereo partly specified)", "normalized growth": 0.965}

Using the record for c1ccc2[nH]c(-c3cscn3)nc2c1 , report its normalized growth.
0.997

* * *

Experiment: chemical genetic growth profiling, strain panel (AID 1159580);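 also: tested at 20 µM; growth read once vehicle control cultures reached saturation at 30 °C; 1 = growth at the plate median or of vehicle wells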
Settings: S. cerevisiae deletion strains, growth OD, locus YJR066W, strain TOR1, stronger effect = lower value
Screen size: about 5,500 compounds; about 2,000 (36%) were called active. Another 18% or so got no clear call; they are omitted. Some of the results follow.
A collection of compounds and their measured normalized growth
# output: bare number, no unit

Examples from the recorded data:
{"compound": "CO[C@@H]1[C@@H](O[C@@H]2O[C@H](C)[C@@H](O[C@H]3C[C@@](C)(O)[C@H](O)[C@H](C)O3)[C@H](N(C)C)[C@H]2O)[C@@H](CC=O)C[C@@H](C)[C@@H](O[C@H]2CC[C@H](N(C)C)[C@@H](C)O2)/C=C/C=C/C[C@H](C)OC(=O)C[C@H]1O", "normalized growth": 0.922}
{"compound": "CCOC(=O)NC(=S)NC12CC3CC(CC(C3)C1)C2", "normalized growth": 0.903}

Looking for the measured normalized growth of CCCCC(CC)CN=C(N)NC(N)=NCCCCCCN=C(N)NC(N)=NCC(CC)CCCC (stereo not drawn) , can you help?
-0.00183

* * *

Assay: chemical genetic growth profiling, strain panel (AID 1159580);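 also: tested at 20 µM; growth read once vehicle control cultures reached saturation at 30 °C; 1 = growth at the plate median or of vehicle wells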
Settings: S. cerevisiae deletion strains, growth OD, locus YGR040W, strain KSS1, stronger effect = lower value
The whole screen tested about 5,500 compounds, of which about 2,000 (36%) were called active. Another 18% or so got no clear call; they are omitted. The list shows a part of the results.
Catalogue of normalized growth readings, one per entry.
Write the value as a bare number.

Can you look up the measured normalized growth of CC(C)(O)C#Cc1ccc(/C=N\Nc2c(Cl)cc(Cl)cc2Cl)cc1 for me?
0.833

What do we get for CC(=O)C(Sc1nc2ccccc2s1)C(C)=O ?
0.798

Quick one: CSc1cccc(N2C(=O)CC(c3c(Cl)cccc3Cl)CC2=O)c1
0.987

Check CN(C)/C=C/C(=O)c1ccc(C#Cc2ccccc2)cc1 too.
0.967

Now try CCc1cc2c(cc1-c1csc(C/C(N)=N\O)n1)C(C)(C)CCC2(C)C .
0.749

For Cc1nc(C(F)(F)F)c(C(=O)O/N=C(/N)c2ccc(Cl)cc2)s1 then?
0.941

Entry CC(C)(O)C#Cc1ccc(/C=N\Nc2ccccc2)cc1 please
0.784

Try this compound next: O=C(Nc1ccc(Cl)cc1Cl)c1cnccc1C(F)(F)F
0.977

Try this compound next: O=C(CO/N=C\c1ccc(Cl)cc1Cl)NNC(=S)Nc1cc(Cl)ccc1Cl
0.984

Values from PubChem BioAssay AID1159580
